Overview of reported IC50 across a group of compounds:
molecular target: human recombinant KDM1A (LSD1)/CoRest (Homo sapiens); construct: made in house; host or cells: E. coli; assay: Assay of enzyme inhibition of KDM1A (LSD1), Amplex UltraRed/peroxidase coupled; type: biochemical; conditions: 15 min preincubation, 4.5 μM mono-methylated H3-K4 peptide, range classes, read-out: IC50 [μM], KDM1A inhibition assay

# compound, value-type, assay-result
data = [
    ("CC[C@@]1(N)C[C@H]1c1ccc(NC(=O)c2ccc(N3CCOCC3)c(NC(=O)OCc3ccccc3)c2)cc1 (relative stereo)", "IC50", "< 0.1 µM"),
]

Attention now turns to another entry.
INPUT: What value of measured IC50 is listed for N[C@]1(Cc2ccccc2)C[C@H]1c1ccc(F)cc1 (relative stereo) ?
OUTPUT: 0.1 to 1 µM

====

Target: human recombinant KDM1A (LSD1)/CoRest (Homo sapiens)
Construct: made in house; host or cells: E. coli
Test: Assay of enzyme inhibition of KDM1A (LSD1), Amplex UltraRed/peroxidase coupled
Type: biochemical
Details: 15 min preincubation, 4.5 μM mono-methylated H3-K4 peptide, range classes, read-out: IC50 [μM], KDM1A inhibition assay
Experimental: The experiments were performed using a mono-methylated H3-K4 peptide containing 21 amino acids (custom synthesis done by Thermo Scientific) as substrate and in a 50 mM TRIS, pH 8, 0.05 mg/ml BSA buffer. The demethylase activity was estimated under aerobic conditions and at RT by measuring the release of H2O2 produced during the catalytic process by the Amplex® UltraRed detection system coupled with peroxidase assay. […] The IC50 was calculated using GraphPad Software.
Structures can show the parent of a compound that is named as a salt.
Quick list: IC50 per entry.

INPUT: Quick one: IC50 for N[C@]1(c2ccccc2)C[C@H]1c1ccc(NC(=O)Cc2cccc3ccccc23)cc1 (relative stereo) [Example A-104, hydrochloride] ?
OUTPUT: < 0.1 µM

INPUT: # IC50 lookup, item N[C@]1(c2ccccc2)C[C@H]1c1ccc(Br)cc1 (relative stereo) [Example D-5, hydrochloride]
OUTPUT: < 0.1 µM

INPUT: So what's the measured IC50 for this one? CC[C@@]1(NCC(=O)N2CCN(C)CC2)C[C@H]1c1ccccc1 (relative stereo)
OUTPUT: 0.1 to 1 µM

INPUT: Query: IC50; subject: CC[C@@]1(N)C[C@H]1c1ccc(NC(=O)c2cccc(NC(=O)OCc3ccccc3)c2)cc1 (relative stereo) [Example A-37, hydrochloride]
OUTPUT: < 0.1 µM

INPUT: Would you kindly share the measured IC50 for N[C@]1(Cc2ccc3ccccc3c2)C[C@H]1c1ccc(NC(=O)c2ccc(NC(=O)OCc3ccccc3)cc2)cc1 (relative stereo) ?
OUTPUT: 0.1 to 1 µM

INPUT: Please report the recorded IC50 for CC[C@@]1(N)C[C@H]1c1ccc(NC(=O)c2ccc(NCCO)cc2)cc1 (relative stereo) [Example A-120, hydrochloride] .
OUTPUT: 0.1 to 1 µM

====

Catalogue of IC50 values
target: human recombinant KDM1A (LSD1)/CoRest (Homo sapiens); construct: made in house; host or cells: E. coli; experiment: Assay of enzyme inhibition of KDM1A (LSD1), Amplex UltraRed/peroxidase coupled; format: biochemical; conditions: 15 min preincubation, 4.5 μM mono-methylated H3-K4 peptide, range classes, read-out: IC50 [μM], KDM1A inhibition assay
Counter-ions that a name gives are not always drawn.

Worked cases, IC50 given:
# compound, assay-target, IC50
measured = [
    ("CC[C@@]1(N)C[C@H]1c1ccccc1Cl (relative stereo) [Example A-26, hydrochloride]", "human recombinant KDM1A (LSD1)/CoRest (Homo sapiens)", "0.1 to 1 µM"),
    ("CC[C@@]1(N)C[C@H]1c1cccc(NC(=O)c2ccc3ccccc3c2)c1 (relative stereo) [Example A-92, hydrochloride]", "human recombinant KDM1A (LSD1)/CoRest (Homo sapiens)", "0.1 to 1 µM"),
    ("N[C@]1(c2ccccc2)C[C@H]1c1ccc(NC(=O)c2cccc3ccccc23)cc1 (relative stereo) [Example A-90, hydrochloride]", "human recombinant KDM1A (LSD1)/CoRest (Homo sapiens)", "< 0.1 µM"),
    ("CC[C@@]1(N)C[C@H]1c1ccc(NC(=O)c2ccc(N3CCOCC3)cc2)cc1 (relative stereo) [Example A-88]", "human recombinant KDM1A (LSD1)/CoRest (Homo sapiens)", "< 0.1 µM"),
    ("N[C@]1(CCc2ccccc2)C[C@H]1c1ccc(NC(=O)c2cccc(N3CCOC3=O)c2)cc1 (relative stereo) [Example A-118]", "human recombinant KDM1A (LSD1)/CoRest (Homo sapiens)", "< 0.1 µM"),
    ("CC[C@@]1(N)C[C@H]1c1cccc(NC(=O)c2ccc(-c3ccccc3)cc2)c1 (relative stereo) [Example A-91, hydrochloride]", "human recombinant KDM1A (LSD1)/CoRest (Homo sapiens)", "0.1 to 1 µM"),
]

INPUT: Form field: reported IC50 of N[C@]1(c2ccc([N+](=O)[O-])cc2)C[C@H]1c1ccccc1 (relative stereo) [Example D-3, hydrochloride]
OUTPUT: 0.1 to 1 µM
